B1: Peroxisome proliferator-activated receptor delta, residues 71 to 145; numbered along this chain, Q03181 (parent)
chain: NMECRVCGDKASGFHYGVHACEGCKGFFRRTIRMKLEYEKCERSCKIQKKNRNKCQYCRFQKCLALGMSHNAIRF

Variants of: B1
experimental protocol: abundance fitness (aPCA) (normalised: wild type 0, dead -1); higher = more abundant; growth selection in yeast, the domain comes from the species named
experimental parameters: Homo sapiens
Class assignment keyed on abundance fitness, ranges category 1: < -0.8; category 2: ≥ -0.8 and < -0.03; category 3: ≥ -0.03

In [3]: df
Out[3]:
                             residue_string  class_name
0  NMECRVCGDKASGFHYGVHACEGCKGFFRRTIRMKLEYEKCERSCKIQKKNRNKCQYCRFQKCLALGMSHGAIRF  category 2
1  NMECRVCGDKASGFHYGVHACEGCKGFFRRTIRCKLEYEKCERSCKIQKKNRNKCQYCRFQKCLALGMSHNAIRF  category 2
2  NMECRVCGDKASGFHYGVHACEGCKGFARRTIRMKLEYEKCERSCKIQKKNRNKCQYCRFQKCLALGMSHNAIRF  category 2
3  NMECRVCGDKASGFHYGVHACEGCKGFFRRTIRMKLEYEDCERSCKIQKKNRNKCQYCRFQKCLALGMSHNAIRF  category 2
4  NMECRVCGDKASGFHYGVHACEGCKGFFRRTIRMKLEYEKCERSCKIQKKNRNKCQYPRFQKCLALGMSHNAIRF  category 1
5  NMECRVCGDKASGFHYGVHACEGCKGFFRRTIRMKLEYEKCERSCKIQKKNRNKCDYCRFQKCLALGMSHNAIRF  category 3
6  NMECRVCGDKASGFHYGVHACEGCKGFFRRTIRMKLEYEKCERSEKIQKKNRNKCQYCRFQKCLALGMSHNAIRF  category 1
7  NMECRVCGDKASGFHYGVHACEGCKGFFRRTIRMKLEPEKCERSCKIQKKNRNKCQYCRFQKCLALGMSHNAIRF  category 2
8  NMECRVCGDKASGFHYGVCACEGCKGFFRRTIRMKLEYEKCERSCKIQKKNRNKCQYCRFQKCLALGMSHNAIRF  category 3
